Sourced from PubChem BioAssay (NCI)

Consider the following compounds; for each one, report its growth inhibition.
# assay_protocol: NCI Yeast Anticancer Drug Screen. Data for the sgs1 mgt1 strain (AID 161);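 further: 0% = growth of cultures given vehicle only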
# conditions_used: S. cerevisiae sgs1 mgt1 strain, at 50.0 µM, hits give high values
The panel holds about 79,000 compounds, 15% with a hit somewhere; the sample as a whole holds those more often.
Reply with just the number (in %).

stdin: I am curious: what growth inhibition value has been reported for `CC1=C(C(=O)CC(=O)Nc2ccc(Cl)c(Cl)c2)Sc2ccccc2N1` ?
stdout: -4.3

stdin: Repeat for the following compound: COc1cccc(/S(C)=N/S(=O)(=O)c2ccc(C)cc2)c1 (configuration not stated)
stdout: 2.8

stdin: Repeat for the following compound: C=CC(CCCC(C=C)OC(C)=O)OC(C)=O (configuration not stated)
stdout: -0.65

stdin: Repeat for the following compound: `CCCCCc1ccc2oc(=O)c3ccc(C)cc3c2c1O`
stdout: 16.2

stdin: Repeat for the following compound: `Cc1cc(N)cc(C)n1`
stdout: -14.8

stdin: Repeat for the following compound: `COc1ccc2c(=O)c(O)c(-c3ccc(OC)c(OC)c3)oc2c1`
stdout: -18.6

stdin: Repeat for the following compound: `c1ccc(-c2cc3ccccc3c(-c3ccccc3)c2-c2ccccc2)cc1`
stdout: -4.8

stdin: Repeat for the following compound: O=P1(C(c2ccccc2)c2ccccc2)OC2CC(Cl)CC(C2)O1 (configuration not stated)
stdout: -6.9

stdin: Repeat for the following compound: `N#Cc1ccc[n+]([O-])c1`
stdout: 0.05

stdin: Repeat for the following compound: `CCOC(=O)NN(C(=O)OCC)c1c(C)cc(C)c(N(NC(=O)OCC)C(=O)OCC)c1C`
stdout: 12.4

stdin: Repeat for the following compound: CC(OC(=O)Nc1ccccc1)c1ccccc1 (configuration not stated)
stdout: 11.9

stdin: Repeat for the following compound: `CSC(N)=Nc1c(C)cccc1C`
stdout: 5.35
